Listed below: TGI values for each entry.
System: U251 CNS
Experiment: NCI tumour cell line growth inhibition, 48 h
MEASUREMENT KIND: TGI

CCCN1CN(C(C(=O)N[C@@H]2C(=O)N3C(C(=O)O)=C(C)CSC23)c2ccccc2)CSC1=S (stereo partly specified): > 100 µM
C/C(CN1C(=O)c2ccccc2C1=O)=N\NS(C)(=O)=O: > 100 µM
NS(=O)(=O)c1ccc(NCc2cnc3ccccc3c2)cc1: > 100 µM
O=C(O)C1CCCN1Cc1ccc2c(c1)OCO2 (stereo unspecified): > 100 µM
CC(C)(C)C1=NN=C2c3ccccc3C(=O)C21 (stereo unspecified): > 100 µM
O=C1NCN(c2ccccc2)C12CCN(CCCSc1ccc(F)cc1)CC2: > 100 µM
COc1ccc(-n2nnnc2C2(Nc3ccccc3)CCN(Cc3ccccc3)CC2)cc1: > 100 µM
CC1(C)OC([C@H](O)CO)C([C@H]2NCCS2)O1 (stereo partly specified): > 100 µM
COc1ccc(OC)c2c3c(ncc12)-c1cc2c(cc1C3)OCO2: 3.31 µM
O=C1/C(=C/c2cccc3ccccc23)Cc2ccccc21: 52 µM
Nc1nc(Cl)cc(NCC2(CO)CCC(OCc3ccccc3)C2)n1 (stereo unspecified): > 100 µM

* * *

System: UACC-62 melanoma
Experiment: NCI tumour cell line growth inhibition, 48 h
MEASUREMENT KIND: TGI

C(=N/Nc1ccccn1)/c1cccnc1: > 100 µM
Nc1nc(Cl)nc2c1ncn2C1CCC(CO)O1 (configuration not stated): > 100 µM
CCC(C)(C)c1ccc(Oc2cccc(C(=O)O)c2)cc1: > 100 µM
O=C1/C(=C/c2cccc3ccccc23)Cc2ccccc21: > 100 µM
Cc1cc(NC(=O)C(=O)Cc2nc3ccccc3s2)ccc1Cl: > 100 µM
N=C1N=Nc2nc(C3(c4nc5n(c4O)C(=N)N=N5)Cc4ccccc4C3=O)c(O)n21 (configuration not stated): > 100 µM
Cc1c(C)c(C)c(CSC(=N)N)c(C)c1C: 24.2 µM
Nc1nc(Cl)cc(NCC2(CO)CC(Cc3ccccc3)C2)n1 (configuration not stated): > 100 µM
CC(=O)OCC(OC(C)=O)C(OC(C)=O)C(OC(C)=O)C(/C=N\Nc1nc2ccccc2c(=O)[nH]1)OC(C)=O (configuration not stated): > 100 µM
CCC(/C=C/c1ccccc1)=N\N=C(\C=C\c1ccccc1)CC: > 100 µM
O=C(O)c1cn(C2CC2)c2cc(N3CCN(C(=O)Nc4nc(-c5ccc(Cl)cc5)cs4)CC3)c(F)cc2c1=O: 37.9 µM
COc1cc(OC)nc(NC(=O)NS(=O)(=O)c2cccc3ncn(C)c(=O)c23)n1: > 100 µM

* * *

System: HOP-62 NSCLC
Assay: NCI tumour cell line growth inhibition, 48 h
Listed below: TGI values for each entry.
MEASUREMENT KIND: TGI

CCOC(=O)C1=C(N)Oc2cc(OC)ccc2C1c1ccc(F)c(F)c1 (stereo not given): 19.4 µM
CC1(CC(=O)OC(C#C[Si](C)(C)C)Cc2ccccc2)OCCO1 (stereo not given): > 100 µM
O=c1nc2[nH]nc(-c3ccccc3)c2n[nH]1: > 100 µM
C#CCOc1c(OC)cc(C(=O)/C(C)=C/c2cccc(N=[N+]=[N-])c2)cc1OC: > 100 µM
CCC1=C[C@H]2CN(CCc3c([nH]c4ccccc34)[C@@](C(=O)OC)(c3cc4c(cc3OC)N(C)[C@H]3[C@@](O)(C(=O)OC)[C@H](OC(C)=O)[C@]5(CC)[C@@H]6C[C@@H]6CN6CC[C@]43[C@@H]65)C2)C1: 4.43 µM
